- Tested on: angiogenesis genes in dermal microvascular endothelial cells
- ASSAY NAME: Real time RT-PCR of angiogenesis gene expression during endothelial tube formation
- Type: cell-based
- DETAILS: 1 μM SM, 24 hours
MEASURED ATTRIBUTE: Log2 fold-change of gene expression: PROK2
One number for each entry.

Field: example entries. Status: answers known.
{"columns": ["COMPOUND", "QUANTITATIVE READOUT"],
 "data": [
  ["COc1cc2cc(c1Cl)N(C)C(=O)CC(OC(=O)C(C)C)C1(C)OC1C(C)C1CC(O)(NC(=O)O1)C(OC)/C=C/C=C(\\C)C2 (stereo not drawn)", 1.9],
  ["CCC(=O)OCN1C(=O)C=CC1=O", "−1.3"],
  ["COC(=O)C1CC(=O)C(C(=O)OC)CC1=O (stereo not drawn)", 1.3],
  ["COc1ccc(CC2C(=O)NC(C)C(=O)N(C)C3Cc4ccc(cc4)Oc4cc(ccc4O)CC(C(=O)NC(C)C(=O)NC(C)C(=O)N2C)N(C)C3=O)cc1 (stereo not drawn)", 2.2],
  ["CC1CCN(CC[S-])CC1.O.O.[Cl][Pt+]", 2.0]
]}

Switching to the query record.
Task: Consider the compound O=C1C(=Cc2ccccc2)C(NC2CCCCC2)c2ccccc21 (stereo not drawn) tested on angiogenesis genes in dermal microvascular endothelial cells; state its Log2 fold-change of gene expression: PROK2.
Result: 0.7

---

- Tested on: angiogenesis genes in dermal microvascular endothelial cells
- ASSAY NAME: Real time RT-PCR of angiogenesis gene expression during endothelial tube formation
- Format: cell-based
- DETAILS: 1 μM SM, 24 hours
hey, just use true if measured Log2 fold-change of gene expression: TEK is less than 0.7, otherwise false

Task: Decide: Log2 fold-change of gene expression: TEK of COC(=O)C1CC(=O)C(C(=O)OC)CC1=O (stereo not drawn) strictly below 0.7?
Result: true

Task: Item COc1cc2cc(c1Cl)N(C)C(=O)CC(OC(=O)C(C)C)C1(C)OC1C(C)C1CC(O)(NC(=O)O1)C(OC)/C=C/C=C(\C)C2 (stereo not drawn) : Log2 fold-change of gene expression: TEK beneath 0.7, strictly?
Result: false

Task: Does this compound meet the criterion Log2 fold-change of gene expression: TEK < 0.7? CC1CCN(CC[S-])CC1.O.O.[Cl][Pt+]
Result: false

Task: Given CCC(=O)OCN1C(=O)C=CC1=O , is recorded Log2 fold-change of gene expression: TEK strictly lower than 0.7?
Result: true

Task: is_below(Log2 fold-change of gene expression: TEK, 0.7) for COc1ccc(CC2C(=O)NC(C)C(=O)N(C)C3Cc4ccc(cc4)Oc4cc(ccc4O)CC(C(=O)NC(C)C(=O)NC(C)C(=O)N2C)N(C)C3=O)cc1 (stereo not drawn) ?
Result: false

---

- Test system: angiogenesis genes in dermal microvascular endothelial cells
- ASSAY NAME: Real time RT-PCR of angiogenesis gene expression during endothelial tube formation
- Format: cell-based
- DETAILS: 1 μM SM, 24 hours
Can you tell me Log2 fold-change of gene expression: ralb for the items I'm about to list?
Numbers only.

Worked examples, 3 compounds total:
{"columns": ["COMPOUND", "SYSTEM TESTED", "QUANTITATIVE READOUT"],
 "data": [
  ["O=C1C(=Cc2ccccc2)C(NC2CCCCC2)c2ccccc21 (stereo not drawn) [compound 150117]", "angiogenesis genes in dermal microvascular endothelial cells", "−0.7"],
  ["COc1ccc(CC2C(=O)NC(C)C(=O)N(C)C3Cc4ccc(cc4)Oc4cc(ccc4O)CC(C(=O)NC(C)C(=O)NC(C)C(=O)N2C)N(C)C3=O)cc1 (stereo not drawn) [compound 259969]", "angiogenesis genes in dermal microvascular endothelial cells", 0.7],
  ["COc1cc2cc(c1Cl)N(C)C(=O)CC(OC(=O)C(C)C)C1(C)OC1C(C)C1CC(O)(NC(=O)O1)C(OC)/C=C/C=C(\\C)C2 (stereo not drawn) [compound 292222]", "angiogenesis genes in dermal microvascular endothelial cells", "−0.4"]
]}

Provide Log2 fold-change of gene expression: ralb values for the following items, in order.
1. CCC(=O)OCN1C(=O)C=CC1=O [compound 19630]
2. CC1CCN(CC[S-])CC1.O.O.[Cl][Pt+] [compound 292596]
3. COC(=O)C1CC(=O)C(C(=O)OC)CC1=O (stereo not drawn) [Compound 122567]

Result:
0.1
−0.5
0.3

FYI, the data here is from patent US9504729B2.
